# measured target: PLK1 (Homo sapiens)
# protocol summary: Cellular PLK1 assay in K562 cells overexpressing CDC25C
# Type: cell-based
# Set-up: endogenous in cells; host or cells: K562 (human chronic myelogenous leukemia) overexpressing CDC25C, nocodazole-arrested
# measurement setup: nocodazole arrested, cdc25c p-Ser198 readout
This section presents compounds with their documented IC50 values.

Form field IC50, entry CCCN1CCOc2ccc(Nc3nc(Nc4ccc(N5CC6CC5CN6S(C)(=O)=O)c(C)c4)ncc3C)nc21 (stereo not shown) [compound 33] : 0.5 to 5 µM

Form field IC50, entry Cc1cc(Nc2ncc(F)c(Nc3ccc4c(n3)N(CC3CCCCC3)C(=O)CO4)n2)ccc1N1CCN(C)CC1 [compound 113] : ≥ 10 µM

Form field IC50, entry COc1ccc(CN2C(=O)COc3ccc(Nc4nc(Nc5ccc(N6CCN(C)CC6)c(C)c5)ncc4F)nc32)cc1 [compound 124] : ≥ 10 µM

Form field IC50, entry CCN1C(=O)COc2ccc(Nc3nc(Nc4ccc(N5CCN(C)CC5)nc4)ncc3C)nc21 [compound 101] : 0.5 to 5 µM

Form field IC50, entry Cc1cc(Nc2ncc(C)c(Nc3ccc4c(n3)N(C)C(=O)C(C)(C)O4)n2)ccc1N1CCN(C)CC1 [compound 98] : ≥ 10 µM

Form field IC50, entry CCCN1C(=O)COc2ccc(Nc3nc(Nc4ccc(N5CCNCC5)c(C(F)(F)F)c4)ncc3F)nc21 [compound 138] : ≥ 10 µM

Form field IC50, entry O=C1COc2ccc(Nc3nc(Nc4cccc(N5CCNCC5)c4)ncc3F)cc2N1 [compound 18] : 0.5 to 5 µM

---

This section presents compounds with their documented IC50 values.
# measured target: PLK1 (Homo sapiens)
# protocol summary: In vitro PLK1 ELISA assay (biochemical)
# Design: purchased Cell Signalling 7728
# measurement setup: ELISA, CHK2-derived peptide substrate; read-out: PLK1 IC50 (μM) biochemical assay

| compound | IC50 |
| --- | --- |
| CCN1CCN(c2ccc(Nc3ncc(Cl)c(Nc4ccc5c(c4)N(CC)C(=O)CO5)n3)cc2)CC1 [compound 183] | 0.5 to 5 µM |
| CN1CCN(c2cc(Nc3ncc(F)c(Nc4ccc5c(n4)NC(=O)CO5)n3)cc(OCC3CCC3)c2)CC1 [compound 14] | ≥ 10 µM |
| CCCN1C(=O)COc2ccc(Nc3nc(Nc4ccc(N5CCN(C)CC5)c(C(F)(F)F)c4)ncc3C)nc21 [compound 136] | ≥ 10 µM |

Could you now look at the following compound, please?
Form field IC50, entry Cc1cc(Nc2ncc(C)c(Nc3ccc4c(n3)N(CC3CCC3)C(=O)CO4)n2)ccc1N1CCN(C)CC1 [compound 115] : 0.5 to 5 µM

---

# measured target: PLK1 (Homo sapiens)
# protocol summary: In vitro PLK1 ELISA assay (biochemical)
# Parameters: purchased Cell Signalling 7728
# measurement setup: ELISA, CHK2-derived peptide substrate; read-out: PLK1 IC50 (μM) biochemical assay
property measured: IC50

Previously resolved entries follow.
| compound | measured target | IC50 |
| --- | --- | --- |
| CCCN1C(=O)COc2ccc(Nc3nc(Nc4ccc(N5CC6CC5CN6C)c(C)c4)ncc3C)nc21 (stereo not shown) | PLK1 (Homo sapiens) | < 0.5 µM |
| CCCN1C(=O)COc2ccc(Nc3nc(Nc4ccc(N5CCN(C)CC5)c(C(F)(F)F)c4)ncc3F)nc21 | PLK1 (Homo sapiens) | ≥ 10 µM |
| CC(C)Oc1cc(Nc2ncc(F)c(Nc3ccc4c(n3)NCCO4)n2)cc(N2CCN(C)CC2)c1 | PLK1 (Homo sapiens) | < 0.5 µM |

Could you now look at the following compound, please?
Form field IC50, entry CC(C)c1cc(Nc2ncc(F)c(Nc3ccc4c(n3)NC(=O)CO4)n2)ccc1N1CC2CC1CN2C (stereo not shown) : ≥ 10 µM

---

# measured target: UniProt:P53350
# protocol summary: Cellular PLK1 assay in K562 cells overexpressing CDC25C
# Type: cell-based
# Set-up: endogenous in cells; host or cells: K562 (human chronic myelogenous leukemia) overexpressing CDC25C, nocodazole-arrested
# measurement setup: nocodazole arrested, cdc25c p-Ser198 readout
property measured: IC50

Form field IC50, entry "CN1CCN(c2cc(Nc3ncc(F)c(Nc4ccc5c(n4)NC(=O)CO5)n3)cc(C3CC3)c2)CC1" : < 0.5 µM

---

This section presents molecules with their documented IC50 values.
# measured target: UniProt:P53350
# protocol summary: Cellular PLK1 assay in K562 cells overexpressing CDC25C
# Format: cell-based
# Design: endogenous in cells; host or cells: K562 (human chronic myelogenous leukemia) overexpressing CDC25C, nocodazole-arrested
# measurement setup: nocodazole arrested, cdc25c p-Ser198 readout

Previously resolved entries follow.
| molecule | IC50 |
| --- | --- |
| CN1CC2CC1CN2c1cccc(Nc2ncc(F)c(Nc3ccc4c(n3)NC(=O)CO4)n2)c1 (stereo not drawn) [compound 41] | < 0.5 µM |
| CN1CCN(c2ccc(C3CC3)c(Nc3ncc(F)c(Nc4ccc5c(n4)NCCO5)n3)c2)CC1 [compound 34] | < 0.5 µM |
| CC(C)c1ccc(N2CCN(C)CC2)cc1Nc1ncc(F)c(Nc2ccc3c(n2)NCCO3)n1 [compound 27] | 0.5 to 5 µM |
| Cc1cc(Nc2ncc(C)c(Nc3ccc4c(n3)N(CC3CC3)C(=O)CO4)n2)ccc1N1CCN(C)CC1 [compound 114] | ≥ 10 µM |
| CCN1CCN(c2ccc(Nc3ncc(C)c(Nc4ccc5c(n4)NC(=O)C(C)(C)O5)n3)cc2)CC1 [compound 92] | ≥ 10 µM |
| CCN1CCN(c2ccc(Nc3ncc(C)c(Nc4ccc5c(n4)N(C)C(=O)C(C)(C)O5)n3)cc2)CC1 [compound 94] | ≥ 10 µM |
| C#CCN1C(=O)COc2ccc(Nc3nc(Nc4cccc(N5CCN(C)CC5)c4)ncc3F)nc21 [compound 128] | 0.5 to 5 µM |
| CN1CCN(c2cccc(Nc3ncc(F)c(Nc4ccc5c(c4)NCCO5)n3)c2)CC1 [compound 20] | 0.5 to 5 µM |

Form field IC50, entry CCCN1C(=O)COc2ccc(Nc3nc(Nc4ccc(N5CCN(C)CC5)c(C)c4)ncc3C)nc21 [compound 97] : 0.5 to 5 µM

Form field IC50, entry CN1CCN(c2cc(Nc3ncc(F)c(Nc4ccc5c(n4)NCCO5)n3)cc(C(F)(F)F)c2)CC1 [compound 24] : ≥ 10 µM

Form field IC50, entry CCN1C(=O)COc2ccc(Nc3nc(Nc4ccc(N5CCN(C)CC5)cc4)ncc3C)cc21 [compound 189] : 0.5 to 5 µM

Form field IC50, entry Cc1cnc(Nc2cccc(N3CCN(C)CC3)c2)nc1Nc1ccc2c(n1)N(CC1CC1)C(=O)CO2 [compound 129] : 0.5 to 5 µM

Form field IC50, entry CN1C(=O)COc2ccc(Nc3nc(Nc4ccc(N5CCN(S(C)(=O)=O)CC5)cc4)ncc3Cl)cc21 [compound 197] : 0.5 to 5 µM

Form field IC50, entry CN1CCN(c2cccc(Nc3ncc(F)c(Nc4ccc5c(n4)N(CC4CCC4)C(=O)CO5)n3)c2)CC1 [compound 109] : 0.5 to 5 µM

Form field IC50, entry Cc1cnc(Nc2cccc(N3CCN(C)CC3)c2)nc1Nc1ccc2c(n1)N(Cc1ccc(F)cc1)C(=O)CO2 [compound 133] : 0.5 to 5 µM

---

This section presents molecules with their documented IC50 values.
# measured target: PLK1 (Homo sapiens, UniProt P53350)
# Sequence (P53350 whole entry): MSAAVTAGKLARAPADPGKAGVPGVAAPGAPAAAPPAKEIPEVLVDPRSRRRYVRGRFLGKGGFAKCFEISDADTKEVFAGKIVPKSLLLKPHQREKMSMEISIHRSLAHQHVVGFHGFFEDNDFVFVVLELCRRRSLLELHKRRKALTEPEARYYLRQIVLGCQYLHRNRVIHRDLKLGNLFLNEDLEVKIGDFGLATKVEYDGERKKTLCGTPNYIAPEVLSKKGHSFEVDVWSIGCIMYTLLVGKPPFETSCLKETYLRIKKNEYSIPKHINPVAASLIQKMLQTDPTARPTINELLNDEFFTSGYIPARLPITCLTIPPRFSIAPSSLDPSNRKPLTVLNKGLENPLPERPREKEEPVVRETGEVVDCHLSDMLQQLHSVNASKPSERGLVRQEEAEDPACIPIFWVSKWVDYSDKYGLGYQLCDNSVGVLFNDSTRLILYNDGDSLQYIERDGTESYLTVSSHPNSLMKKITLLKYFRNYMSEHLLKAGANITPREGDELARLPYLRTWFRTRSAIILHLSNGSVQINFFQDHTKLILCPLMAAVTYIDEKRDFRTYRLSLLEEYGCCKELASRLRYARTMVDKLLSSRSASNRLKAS
# protocol summary: In vitro PLK1 ELISA assay (biochemical)
# Parameters: purchased Cell Signalling 7728
# measurement setup: ELISA, CHK2-derived peptide substrate; read-out: PLK1 IC50 (μM) biochemical assay

Form field IC50, entry CC(C)c1cc(Nc2ncc(F)c(Nc3ccc4c(n3)NCCO4)n2)cc(N2CCN(C)CC2)c1 [compound 46] : < 0.5 µM

Form field IC50, entry Cc1cc(Nc2ncc(C)c(Nc3ccc4c(n3)N(C)C(=O)CO4)n2)ccc1N1CCN(C)CC1 [compound 95] : 0.5 to 5 µM

Form field IC50, entry Cc1cc(Nc2ncc(F)c(Nc3ccc4c(n3)N(Cc3ccccc3)C(=O)CO4)n2)ccc1N1CCN(C)CC1 [compound 118] : ≥ 10 µM

Form field IC50, entry CCN1C(=O)COc2ccc(Nc3nc(Nc4ccc(N5CCN(S(C)(=O)=O)CC5)cc4)ncc3C)cc21 [compound 196] : 0.5 to 5 µM

Form field IC50, entry Cc1cc(Nc2ncc(F)c(Nc3ccc4c(n3)N(CC3CCCCC3)C(=O)CO4)n2)ccc1N1CCN(C)CC1 [compound 113] : ≥ 10 µM

Form field IC50, entry CN1CCN(c2cccc(Nc3ncc(C(F)(F)F)c(Nc4ccc5c(n4)NCCO5)n3)c2)CC1 [compound 55] : < 0.5 µM

Form field IC50, entry CN1CCN(c2cccc(Nc3ncc(F)c(N(c4ccc5c(n4)NCCO5)C4CCC4)n3)c2)CC1 [compound 15] : 0.5 to 5 µM

Form field IC50, entry CN1CCN(c2cccc(Nc3ncc(F)c(Nc4ccc5c(c4)NC(=O)CO5)n3)c2)CC1 [compound 17] : < 0.5 µM

Form field IC50, entry CCN1C(=O)COc2ccc(Nc3nc(Nc4ccc(N5CCN(C)CC5)nc4)ncc3C)nc21 [compound 101] : < 0.5 µM

Form field IC50, entry COc1cc(Nc2ncc(F)c(Nc3ccc4c(n3)NCCO4)n2)cc(N2CCN(C)CC2)c1 [compound 5] : < 0.5 µM

Form field IC50, entry CN1CCN(c2cccc(Nc3ncc(F)c(N(c4ccc5c(n4)NCCO5)C4CCCC4)n3)c2)CC1 [compound 54] : 5 to 10 µM
